tested on: A549-GM130-SQSTM1; assay: phenotypically active (imaging signature differs from DMSO and reproducible) at any of 0.3-9 uM (binary (1 = active, 0 = inactive)); higher = active; conditions: treatment time: 24 h
phenotypically active values for the molecules below.
Simply state the number, no unit and no words.

// worked examples, phenotypically active included
1. CCCSc1nc2c(c(=O)n1-c1ccccc1)SCC2 = 0
2. COCCc1ccc(OCC(O)CNC(C)C)cc1 (centres undefined) [metoprolol] = 0

Turning to the following molecule.
Lab note: A549-GM130-SQSTM1 assay, enter phenotypically active for "CCc1cc(-c2n[nH]c(C)c2-c2ccc3c(c2)OCCO3)c(O)cc1O" here 1
